Data origin, for the record: PubChem BioAssay AID1745844

System: rodent lifetime carcinogenesis bioassay, tumor incidence TD50
experiment.description: carcinogenic potency in animals, long-term in vivo studies, CPDB compilation (AID 1745844)
cond: rat; strain Fischer 344; females; in drinking water; site: esophagus; lesion: several types; types named in the paper; dosed 60 weeks; study length 82 weeks
property.measured: TD50

    molecular_string         obs_value
0  O=NN1CCCN(N=O)CC1  0.0553 mg/kg/day

====

Tested on: rodent lifetime carcinogenesis bioassay, tumor incidence TD50
experiment.description: carcinogenic potency in animals, long-term in vivo studies, CPDB compilation (AID 1745844)
cond: rat; strain Donryu; females; in drinking water; site: any site (literature study); lesion: several types; types named in the paper; dosed 68 weeks; study length 68 weeks
property.measured: TD50 (mg/kg/day)

      molecular_string  obs_value
0  NC(=O)N(CC(=O)O)N=O       1.38

====

Test system: rodent lifetime carcinogenesis bioassay, tumor incidence TD50
experiment.description: carcinogenic potency in animals, long-term in vivo studies, CPDB compilation (AID 1745844)
cond: hamster; strain Syrian Golden; males; in drinking water; site: cecum; lesion: polypoid adenoma; dosed 100 weeks; study length 100 weeks
property.measured: TD50 (mg/kg/day)

>>> df
   molecular_string                             target_entity  property_measured   unit_tag  obs_value
0               CNN  rodent lifetime carcinogenesis bioassay, tumor incidence TD50               TD50  mg/kg/day       50.7

====

Tested on: rodent lifetime carcinogenesis bioassay, tumor incidence TD50
experiment.description: carcinogenic potency in animals, long-term in vivo studies, CPDB compilation (AID 1745844)
cond: hamster; strain Syrian Golden; females; in drinking water; site: cecum; lesion: polypoid adenoma; dosed 86 weeks; study length 86 weeks
property.measured: TD50 (mg/kg/day)

>>> df
   molecular_string  property_measured   unit_tag  obs_value
0               CNN               TD50  mg/kg/day       29.8

====

Tested on: rodent lifetime carcinogenesis bioassay, tumor incidence TD50
experiment.description: carcinogenic potency in animals, long-term in vivo studies, CPDB compilation (AID 1745844)
cond: mouse; strain CDF1; males; in feed; site: blood vessels; lesion: several types; types named in the paper; dosed 57 weeks; study length 57 weeks
property.measured: TD50

          molecular_string       obs_value
0  Cc1cccn2c1nc1ccc(N)nc12  5.77 mg/kg/day

====

System: rodent lifetime carcinogenesis bioassay, tumor incidence TD50
experiment.description: carcinogenic potency in animals, long-term in vivo studies, CPDB compilation (AID 1745844)
cond: mouse; strain B6C3F1; males; inhaled; site: lung; lesion: alveolar/bronchiolar adenoma; dosed 103 weeks; study length 104 weeks
property.measured: TD50 (mg/kg/day)

>>> print(df.to_string())
   molecular_string  obs_value
0        CCc1ccccc1       1680

====

Tested on: rodent lifetime carcinogenesis bioassay, tumor incidence TD50
experiment.description: carcinogenic potency in animals, long-term in vivo studies, CPDB compilation (AID 1745844)
cond: rat; strain Fischer 344; males; by gavage; site: liver; lesion: several types; types named in the paper; dosed 50 weeks; study length 83 weeks
property.measured: TD50

>>> print(df.to_string())
      molecular_string                             target_entity       obs_value
0  CCC(CC)[N+](=O)[O-]  rodent lifetime carcinogenesis bioassay, tumor incidence TD50  2.37 mg/kg/day
1           ON=C1CCCC1  rodent lifetime carcinogenesis bioassay, tumor incidence TD50  40.9 mg/kg/day

====

System: rodent lifetime carcinogenesis bioassay, tumor incidence TD50
experiment.description: carcinogenic potency in animals, long-term in vivo studies, CPDB compilation (AID 1745844)
cond: rat; strain Sprague-Dawley; males; by gavage; site: any site (literature study); lesion: several types; types named in the paper; dosed 52 weeks; study length 104 weeks
property.measured: TD50 (mg/kg/day)

In [3]: df
Out[3]:
   molecular_string  obs_value
0       C=Cc1ccccc1       1220

====

System: rodent lifetime carcinogenesis bioassay, tumor incidence TD50
experiment.description: carcinogenic potency in animals, long-term in vivo studies, CPDB compilation (AID 1745844)
cond: rat; strain Wistar; females; inhaled; site: lung; lesion: adenosquamous carcinoma; dosed 78 weeks; study length 134 weeks
property.measured: TD50

   molecular_string                             target_entity        obs_value
0      [Cl][Cd][Cl]  rodent lifetime carcinogenesis bioassay, tumor incidence TD50  0.106 mg/kg/day

====

Test system: rodent lifetime carcinogenesis bioassay, tumor incidence TD50
experiment.description: carcinogenic potency in animals, long-term in vivo studies, CPDB compilation (AID 1745844)
cond: mouse; strain CBA/Cb/Se; males; by gavage; site: lung; lesion: several types; types named in the paper; dosed 36 weeks; study length 84 weeks
property.measured: TD50

In [3]: df
Out[3]:
   molecular_string      obs_value
0       O=S(=O)(O)O  5.1 mg/kg/day

====

Test system: rodent lifetime carcinogenesis bioassay, tumor incidence TD50
experiment.description: carcinogenic potency in animals, long-term in vivo studies, CPDB compilation (AID 1745844)
cond: mouse; strain Swiss albino; males; by gavage; site: lung; lesion: several types; types named in the paper; dosed 52 weeks; study length 134 weeks
property.measured: TD50

   molecular_string  property_measured       obs_value
0  CCCC/C=N/N(C)C=O               TD50  3.79 mg/kg/day

====

System: rodent lifetime carcinogenesis bioassay, tumor incidence TD50
experiment.description: carcinogenic potency in animals, long-term in vivo studies, CPDB compilation (AID 1745844)
cond: rat; strain F344/DuCrj; males; in feed; site: forestomach; lesion: squamous-cell carcinoma; dosed 104 weeks; study length 104 weeks
Parameter: TD50. Scope: all listed entries.
property.measured: TD50

          molecular_string  property_measured       obs_value
0  O=C(O)C=Cc1ccc(O)c(O)c1               TD50   656 mg/kg/day
1         Oc1ccc2c(c1)OCO2               TD50  1540 mg/kg/day
2            COc1ccc(O)cc1               TD50   377 mg/kg/day
3          Cc1ccc(O)c(O)c1               TD50   719 mg/kg/day

====

Tested on: rodent lifetime carcinogenesis bioassay, tumor incidence TD50
experiment.description: carcinogenic potency in animals, long-term in vivo studies, CPDB compilation (AID 1745844)
cond: rat; strain Sprague-Dawley; females; by gavage; site: liver; lesion: angiosarcoma; dosed 59 weeks; study length 129 weeks
property.measured: TD50

In [3]: df
Out[3]:
   molecular_string       obs_value
0             C=CCl  3.58 mg/kg/day

====

Test system: rodent lifetime carcinogenesis bioassay, tumor incidence TD50
experiment.description: carcinogenic potency in animals, long-term in vivo studies, CPDB compilation (AID 1745844)
cond: rat; strain Charles River CD (Sprague-Dawley); males; inhaled; site: nasal cavity; lesion: adenoma; dosed 51 weeks; study length 104 weeks
property.measured: TD50 (mg/kg/day)

   molecular_string  property_measured  obs_value
0         ClCC=CCCl               TD50       23.2

====

Tested on: rodent lifetime carcinogenesis bioassay, tumor incidence TD50
experiment.description: carcinogenic potency in animals, long-term in vivo studies, CPDB compilation (AID 1745844)
cond: rat; strain Fischer 344; females; inhaled; site: any site (literature study); lesion: several types; types named in the paper; dosed 103 weeks; study length 105 weeks
Parameter: TD50. Scope: all listed entries.
property.measured: TD50 (mg/kg/day)

>>> print(df.to_string())
                             compound  property_measured  obs_value
0  CCC1CO1 (configuration not stated)               TD50         78
1                    O=C(CCl)c1ccccc1               TD50      0.859

====

Tested on: rodent lifetime carcinogenesis bioassay, tumor incidence TD50
experiment.description: carcinogenic potency in animals, long-term in vivo studies, CPDB compilation (AID 1745844)
cond: mouse; strain B6C3F1; females; in feed; site: urinary bladder; lesion: reticulum-cell sarcoma, type A; dosed 107 weeks; study length 107 weeks
property.measured: TD50

>>> print(df.to_string())
                           molecular_string      obs_value
0  CN(C)c1ccc(C(=C2C=CC(=[N+](C)C)C=C2)c2ccc(N(C)C)cc2)cc1  834 mg/kg/day

====

System: rodent lifetime carcinogenesis bioassay, tumor incidence TD50
experiment.description: carcinogenic potency in animals, long-term in vivo studies, CPDB compilation (AID 1745844)
cond: mouse; strain XVII/G; females; in drinking water; site: lung; lesion: several types; types named in the paper; dosed 104 weeks; study length 104 weeks
property.measured: TD50 (mg/kg/day)

>>> print(df.to_string())
      molecular_string  property_measured   unit_tag  obs_value
0  O=S(=O)(O)NC1CCCCC1               TD50  mg/kg/day        587
